- Experiment: chemical genetic growth profiling, strain panel (AID 1159580);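 further: tested at 20 µM; growth read once vehicle control cultures reached saturation at 30 °C; 1 = growth at the plate median or of vehicle wells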
- Recorded Conditions: S. cerevisiae deletion strains, growth OD, locus YBR009C, strain hhf1, stronger effect = lower value
In all, about 5,500 compounds went through this assay and about 2,000 (36%) were called active. About 18% were inconclusive and are not listed. The list shows a part of the results.
// boundary case: normalized growth equal to 1 maps to F; strictly smaller maps to T

INSERT INTO results (smiles_entry, assigned_label) VALUES
  ('COc1nc(NC(C)C)nc(NC(C)C)n1', 'F');

# input for lookup
Q. Consider the molecule `O=C(Oc1cccc2cccnc12)c1ccccc1` . Is its normalized growth strictly less than 1?
A. T

----------
Can you tell me normalized growth for the items I'm about to list?
- Experiment: chemical genetic growth profiling, strain panel (AID 1159580);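 further: tested at 20 µM; growth read once vehicle control cultures reached saturation at 30 °C; 1 = growth at the plate median or of vehicle wells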
- Recorded Conditions: S. cerevisiae deletion strains, growth OD, strain wtn01, stronger effect = lower value
The campaign covered roughly 5,500 compounds. About 2,000 (36%) were called active. Roughly 18% stayed inconclusive and do not appear here. Some of the results follow.

Reference set, count: 4
INSERT INTO measurements (molecule, measured_attribute, experimental_result) VALUES
  ('N#Cc1c(Cl)cccc1Cl', 'normalized growth', '1.02 (inactive)'),
  ('CC1=CC(=O)C2C(C)(C)CCC[C@]2(C)[C@@]1(O)CCc1ccoc1 (stereo not given in full)', 'normalized growth', '1.01 (inactive)'),
  ('COC1=CC(C)[C@@H]2C[C@H]3OC(=O)C[C@H]4C(C)=C(OC)C(=O)C([C@@]34C)[C@@]2(C)C1=O (stereo not given in full)', 'normalized growth', '1.01 (inactive)'),
  ('CCOC(=O)CC(SP(=S)(OC)OC)C(=O)OCC (stereo not given)', 'normalized growth', '0.996 (inactive)');

Here is another molecule to look at.
Q. Record request: normalized growth value, item `O=C(O)c1cc(O)ccc1O`
A. 0.943 (inactive)

----------
- Experiment: chemical genetic growth profiling, strain panel (AID 1159580);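 further: tested at 20 µM; growth read once vehicle control cultures reached saturation at 30 °C; 1 = growth at the plate median or of vehicle wells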
- Recorded Conditions: S. cerevisiae strains, growth OD, strain wild type, stronger effect = lower value
The whole screen tested about 5,500 compounds, of which about 2,000 (36%) were called active. Inconclusive results (about 18%) are left out. The list shows a part of the results.
What normalized growth was measured for each of the following?
Answers are plain numbers.

Please review the following examples before continuing.
INSERT INTO results (molecule, measured_attribute, experimental_result) VALUES
  ('Cc1ccc(C(C)C)c(O)c1C(=O)O', 'normalized growth', 0.988),
  ('Cc1nnsc1C(=O)O/N=C1/CCSc2ccc(F)cc21', 'normalized growth', 0.978),
  ('N#CCS(=O)(=O)c1cccs1', 'normalized growth', 1.01);

Lab note: each molecule below needs its normalized growth filled in.
1. O=c1c(O)cc([C@H]2Oc3cc(O)cc(O)c3C[C@H]2O)cc2c([C@H]3Oc4cc(O)cc(O)c4C[C@H]3O)cc(O)c(O)c12
2. CCSc1ncccc1C(=O)N[C@@H](CCSC)C(=O)OC
3. CSc1nc(NC(C)C)nc(NC(C)C)n1
4. COc1cc(C(=O)O)cc(OC)c1OC
5. O=C1C(c2ccc(Br)cc2)=C(O)c2ccccc21

A.
0.998
1
1.01
1.02
0.979

Look at each molecule and report its normalized growth.
1. O=C1NC(=S)NC(=O)C1=Cc1cccc2ccccc12
2. COc1c(O)cc2c(c1O)[C@H]1O[C@H](CO)[C@@H](O)[C@H](O)[C@@H]1OC2=O

A.
[0.998, 0.957]
